Reference source for all entries: the supplement of paper PMC8975748

test system: Saccharomyces cerevisiae BY4741 SeMeCo community; test: z-score of subpopulation abundance vs DMSO median, subpopulation auxotrophic for L; higher = larger share of this subpopulation than in DMSO controls; details: 10 µM; 24 h; SM minimal medium; subpopulation (auxotrophy): L
Counter-ions that a name gives are not always drawn.
Parameter z-score of subpopulation abundance: see the listing below.
property.name: z-score of subpopulation abundance

Cc1c(-c2ccccc2)oc2c(C(=O)OCCN3CCCCC3)cccc2c1=O [Flavoxate HCl]: 0.83
CCCCCNC(=N)N/N=C/c1c[nH]c2ccc(OC)cc12 [Tegaserod Maleate]: 2.04
C[N+]1(C)CCC(=C(c2ccccc2)c2ccccc2)CC1 [Diphemanil Methylsulfate]: -0.56
CN[C@@H]1[C@H](O[C@H]2[C@H](O[C@H]3[C@H](O)[C@@H](O)[C@H](NC(=N)N)[C@@H](O)[C@@H]3NC(=N)N)O[C@@H](C)[C@]2(O)CO)O[C@@H](CO)[C@H](O)[C@H]1O [Dihydrostreptomycin sulfate]: 0.01
CN1CCc2cc3c(cc2C(=O)Cc2ccc4c(c2C1)OCO4)OCO3: 1.72
CN1C[C@@H]2C[C@H]1CN2c1cc2c(cc1F)c(=O)c(C(=O)O)cn2C1CC1 [Danofloxacin Mesylate]: -0.69
NCC[C@H](O)C(=O)N[C@@H]1C[C@H](N)[C@@H](O[C@H]2O[C@H](CN)[C@@H](O)[C@H](O)[C@H]2O)[C@H](O)[C@H]1O[C@H]1O[C@H](CO)[C@@H](O)[C@H](N)[C@H]1O [Amikacin hydrate]: 1.02
OC(Cn1cncn1)(Cn1cncn1)c1ccc(F)cc1F: -0.88
O=c1[nH]c(=O)n([C@H]2C[C@H](O)[C@@H](CO)O2)cc1I: 0.48
Cc1cc(CC(C)CC(C)(C)C)n(O)c(=O)c1 (stereo unspecified): 1.41
CC[C@@]1(O)C(=O)OCc2c1cc1n(c2=O)Cc2cc3cc(O)ccc3nc2-1 [(S)-10-Hydroxycamptothecin]: 1.09

---

Parameter z-score of subpopulation abundance: see the listing below.
test system: Saccharomyces cerevisiae BY4741 SeMeCo community; assay: z-score of subpopulation abundance vs DMSO median, subpopulation auxotrophic for LM; higher = larger share of this subpopulation than in DMSO controls; conditions: 10 µM; 24 h; SM minimal medium; subpopulation (auxotrophy): LM
Structures can show the parent of a compound that is named as a salt.
property.name: z-score of subpopulation abundance

Cc1nccn1CC1CCc2c(c3ccccc3n2C)C1=O (centres undefined) [Ondansetron HCl]: -0.49
CCC(=O)NS(=O)(=O)c1ccc(-c2c(-c3ccccc3)noc2C)cc1 [Parecoxib Sodium]: 1
CCCCOC(=O)c1ccc(O)cc1 [Butylparaben]: -0.49
CN1C2CCCC1CC(NC(=O)c1nn(C)c3ccccc13)C2 (centres undefined) [Granisetron]: -0.49

---

test system: Saccharomyces cerevisiae BY4741 SeMeCo community; assay: z-score of subpopulation abundance vs DMSO median, subpopulation auxotrophic for HM; higher = larger share of this subpopulation than in DMSO controls; conditions: 10 µM; 24 h; SM minimal medium; subpopulation (auxotrophy): HM
Structures can show the parent of a compound that is named as a salt.
property.name: z-score of subpopulation abundance

Cc1nc(Nc2ccc(F)cc2)nc(N2CCc3ccccc3C2C)c1C (stereo not given) [Revaprazan Hydrochloride]: -0.33
O=C(O)c1cccnc1Nc1cccc(C(F)(F)F)c1 [Niflumic acid]: -0.03
CC(C)c1nc(N(C)S(C)(=O)=O)nc(-c2ccc(F)cc2)c1/C=C/[C@@H](O)C[C@@H](O)CC(=O)O [Rosuvastatin Calcium]: 3.45
CC[C@@H](CO)NCCN[C@@H](CC)CO [Ethambutol 2HCl]: -0.9
CCCN1CCCC[C@H]1C(=O)Nc1c(C)cccc1C [Ropivacaine HCl]: -0.41
COc1ccc2c3c1O[C@H]1C[C@@H](O)C=C[C@@]31CCN(C)C2 [Galanthamine]: 1.76
O=C(O[C@H]1CN2CCC1CC2)N1CCc2ccccc2[C@@H]1c1ccccc1 [Solifenacin succinate]: 0
Cc1cc(NS(=O)(=O)c2ccc(N)cc2)nc(C)n1 [sulfaisodimidine]: 0.38
CC1=C(C(=O)O)N2C(=O)[C@@H](NC(=O)[C@H](N)C3=CCC=CC3)[C@H]2SC1 [Cephradine monohydrate]: -0.39
O=C(O)CCCCCCCC(=O)O [Azelaic acid]: -0.04
